# measured.target: T1, human Ang-2 (human, UniProt O15123)
# T1 chain: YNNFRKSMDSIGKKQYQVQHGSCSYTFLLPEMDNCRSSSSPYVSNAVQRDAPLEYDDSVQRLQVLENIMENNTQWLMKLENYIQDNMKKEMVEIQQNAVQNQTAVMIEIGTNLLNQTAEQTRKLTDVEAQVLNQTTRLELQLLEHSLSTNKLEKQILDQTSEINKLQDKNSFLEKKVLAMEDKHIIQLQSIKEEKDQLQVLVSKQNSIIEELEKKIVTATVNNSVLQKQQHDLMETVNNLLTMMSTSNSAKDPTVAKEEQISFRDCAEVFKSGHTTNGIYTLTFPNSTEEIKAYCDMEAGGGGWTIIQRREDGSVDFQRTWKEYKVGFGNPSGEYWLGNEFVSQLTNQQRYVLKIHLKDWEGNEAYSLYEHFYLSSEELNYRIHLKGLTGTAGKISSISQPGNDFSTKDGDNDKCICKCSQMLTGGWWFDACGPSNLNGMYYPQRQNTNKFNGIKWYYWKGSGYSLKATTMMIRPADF
# assay.method.text: competition ELISA vs Tie-2
Primed or numbered codes have the meaning given here. Where no end group is shown, it is not given here. [ ]: non-standard residue; d: D form. Fc(4) = non-antigen-binding fragment of an antibody (from proteolytic digestion of a whole antibody); Fc(7) = Fc domain, peptide fused N- or C-terminal to it
quantity.kind: IC50

INSERT INTO assay_data (binder, reported_measurement) VALUES
  ('M[Fc(4)]GGGGGAQWPQTEGCQWDPWTCRLLHGWLE (not fully specified; cysteine pairing not given here) [Con4-6 (C)]', '> 1000 nM'),
  ('M[Fc(7)]GGGGGAQMFLPNECQWDPWTCSNLPEALE (not fully specified (bridges); cysteine pairing not given here) [Con4-14 (C)]', '> 1000 nM'),
  ('M[Fc(4)]GGGGGAQGHSQEECGWDPWTCEHMGTSLE (not fully specified; cysteine pairing not given here) [Con4-48 (C)]', '0.26 nM'),
  ('M[Fc(4)]GGGGGAQLWQLAVCQWDPQTCDHMGALLE (not fully specified; cysteine pairing not given here) [Con4-7 (C)]', '> 1000 nM'),
  ('M[Fc(7)]GGGGGAQTWPQDKCEWDPWTCRLLQGWLE (not fully specified (bridges); cysteine pairing not given here) [AC1-Con4 (C)]', '> 1000 nM');
